Values from patent US20210139581A1

# target: T1, human CD33 (human, UniProt P20138 18-259, limits assumed)
# T1 construct: Human CD33 immobilized on the BLI sensor tip or the BIAcore C1 chip; also called Siglec-3
# T1 sequence (P20138 18-259 limits assumed): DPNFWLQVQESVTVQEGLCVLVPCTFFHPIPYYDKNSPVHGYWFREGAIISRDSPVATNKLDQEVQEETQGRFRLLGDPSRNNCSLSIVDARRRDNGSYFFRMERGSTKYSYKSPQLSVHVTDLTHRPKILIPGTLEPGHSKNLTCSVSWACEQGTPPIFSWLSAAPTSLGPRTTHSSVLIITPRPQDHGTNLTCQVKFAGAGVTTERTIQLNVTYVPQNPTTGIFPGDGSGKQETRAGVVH
# protocol.text: SPR (BIAcore), Fab over CD33 on C1 chip
// label = label 1 if koff is not less than 0.002 s⁻¹, otherwise label 0

The following binders have reported results that may help.
Request: Is koff for AB-H26 (antibody, V domains shown, Humanized variant of murine 2F5.1; also called AB-26) VH: QVQLVQSGAEVKKPGASVKVSCKASGYTFTDYNLHWVRQAPGQRLEWIGFIYPSNGITGYSQKFQGRATLTVDTSASTAYMELSSLRSEDTAVYYCARSTVDYFDYWGQGTTVTVSS VL: DIQMTQSPSSLSASVGDRVTITCRASQSVSTSTYSYMHWYQQKPGKAPKLLIKYASNLESGVPSRFSGSGSGTDFTLTISSLQPEDFATYYCQHSWEIPLTFGQGTKLEIK at or above 0.002 s⁻¹?
Response: label 1

Request: Same question for Chimeric Ab (antibody, V domains shown, Chimeric antibody with the variable regions of murine 2F5.1; also called parental antibody; comparator antibody) VH: EVQLQQSGPELVKPGASVKISCKASGYTFTDYNLHWVKLSHGKSLEWIGFIYPSNGITGYNQKFKNKATLTVDNSSSTAYMELRSLTSEDSAVYYCARSTVDYFDYWGQGTTLTVSS VL: DIVLTQSPASLAVSLGQRATMSCRASQSVSTSTYSYMHWYQQKPGQPPKLLIKYASNLESGVPARFSGSGSGTDFTLNIHPVEEEDTATYYCQHSWEIPLTFGAGTKLELK please.
Response: label 0

***
Request: Is koff for Chimeric Ab #2 (antibody, V domains shown, Chimeric Ab with a VH-FR3 mutation that removes the predicted N-glycosylation site) VH: EVQLQQSGPELVKPGASVKISCKASGYTFTDYNLHWVKLSHGKSLEWIGFIYPSNGITGYNQKFKNKATLTVDTSSSTAYMELRSLTSEDSAVYYCARSTVDYFDYWGQGTTLTVSS VL: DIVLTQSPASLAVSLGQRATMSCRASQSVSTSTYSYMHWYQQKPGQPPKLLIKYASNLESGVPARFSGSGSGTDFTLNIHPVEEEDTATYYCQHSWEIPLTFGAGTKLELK at or above 0.002 s⁻¹?
Response: label 1

Request: Same question for AB-H6 (antibody, V domains shown, Humanized variant of murine 2F5.1) VH: QVQLVQSGAEVKKPGASVKVSCKASGYTFTDYNLHWVRQAPGQGLEWMGFIYPSNGITGYAQKFQGRVTMTVDTSTSTAYMELSSLRSEDTAVYYCARSTVDYFDYWGQGTTVTVSS VL: DIQMTQSPSSLSASVGDRVTITCRASQSVSTSTYSYMHWYQQKPGKAPKLLIYYASNLESGVPSRFSGSGSGTDFTLTISSLQPEDFATYYCQHSWEIPLTFGQGTKLEIK please.
Response: label 0

Request: Same question for AB-H24 (antibody, V domains shown, Humanized variant of murine 2F5.1; also called AB-24) VH: QVQLVQSGAEVKKPGASVKISCKASGYTFTDYNLHWVRQAPGQRLEWIGFIYPSNGITGYSQKFQGKATLTVDTSASTAYMELSSLRSEDTAVYYCARSTVDYFDYWGQGTTVTVSS VL: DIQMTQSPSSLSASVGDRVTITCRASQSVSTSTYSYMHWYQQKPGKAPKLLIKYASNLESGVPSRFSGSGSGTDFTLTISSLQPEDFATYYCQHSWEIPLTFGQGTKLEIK please.
Response: label 1

Request: Same question for AB-H71 (antibody, V domains shown, Humanized variant of murine 2F5.1; also called AB-71) VH: QVQLVQSGAELKKPGASVKVSCKASGYTFTDYNLHWVRQAPGQRLEWIGFIYPSNGITGYSQKFQGKATLTVDTSASTAYMELSSLRSEDTAVYYCARSTVDYFDYWGQGTTVTVSS VL: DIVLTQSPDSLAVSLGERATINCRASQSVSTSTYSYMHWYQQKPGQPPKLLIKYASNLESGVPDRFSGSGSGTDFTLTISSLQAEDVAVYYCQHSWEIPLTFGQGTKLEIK please.
Response: label 1

Request: Same question for AB-H11 (antibody, V domains shown, Humanized variant of murine 2F5.1) VH: QVQLVQSGAEVKKPGASVKVSCKASGYTFTDYNLHWVRQAPGQSLEWIGFIYPSNGITGYSQKFQGKATLTVDTSASTAYMELSSLRSEDTAVYYCARSTVDYFDYWGQGTTVTVSS VL: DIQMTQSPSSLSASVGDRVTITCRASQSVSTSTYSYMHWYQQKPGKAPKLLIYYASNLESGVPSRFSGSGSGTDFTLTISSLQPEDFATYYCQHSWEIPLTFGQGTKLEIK please.
Response: label 0

Request: Same question for AB-H63 (antibody, V domains shown, Humanized variant of murine 2F5.1) VH: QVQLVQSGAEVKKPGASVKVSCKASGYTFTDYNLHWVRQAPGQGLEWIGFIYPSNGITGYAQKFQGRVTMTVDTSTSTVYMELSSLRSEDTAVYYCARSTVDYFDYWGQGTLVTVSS VL: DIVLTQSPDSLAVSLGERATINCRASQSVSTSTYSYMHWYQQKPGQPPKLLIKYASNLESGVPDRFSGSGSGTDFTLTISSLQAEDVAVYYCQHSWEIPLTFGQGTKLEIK please.
Response: label 1

Request: Same question for AB-H22 (antibody, V domains shown, Humanized variant of murine 2F5.1; also called AB-22) VH: QVQLVQSGAEVKKPGASVKISCKASGYTFTDYNLHWVRQAPGQRLEWIGFIYPSNGITGYNQKFKNKATLTVDTSASTAYMELSSLRSEDTAVYYCARSTVDYFDYWGQGTTVTVSS VL: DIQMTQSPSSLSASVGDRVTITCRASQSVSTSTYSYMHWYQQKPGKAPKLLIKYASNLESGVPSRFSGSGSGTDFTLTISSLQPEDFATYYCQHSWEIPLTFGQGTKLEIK please.
Response: label 0

Request: Same question for AB-H3 (antibody, V domains shown, Humanized variant of murine 2F5.1) VH: QVQLVQSGAEVKKPGASVKISCKASGYTFTDYNLHWVRQAPGQGLEWIGFIYPSNGITGYAQKFQGRATLTVDTSTSTAYMELSSLRSEDTAVYYCARSTVDYFDYWGQGTLLTVSS VL: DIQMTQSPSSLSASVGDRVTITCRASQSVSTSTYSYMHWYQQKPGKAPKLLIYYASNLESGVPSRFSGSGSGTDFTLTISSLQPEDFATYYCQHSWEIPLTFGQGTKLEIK please.
Response: label 0

Request: Same question for AB-H64 (antibody, V domains shown, Humanized variant of murine 2F5.1; also called parental humanized antibody) VH: QVQLVQSGAEVKKPGASVKISCKASGYTFTDYNLHWVRQAPGQGLEWIGFIYPSNGITGYAQKFQGRATLTVDNSTSTAYMELSSLRSEDTAVYYCARSTVDYFDYWGQGTLLTVSS VL: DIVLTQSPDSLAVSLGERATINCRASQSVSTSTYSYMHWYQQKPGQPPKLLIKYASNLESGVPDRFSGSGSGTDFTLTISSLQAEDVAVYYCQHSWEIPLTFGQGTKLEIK please.
Response: label 1
